Record form. Attribute: selectivity ratio. Fill in for each entry.
- Tested on: Hepatitis B virus
- METHOD_DESCRIPTION: Selectivity ratio of CC50 for human HepG2(2.2.15) cells to IC50 for Hepatitis B virus infected in human HepG2(2.2.15) cells assessed as inhibition of viral replication
- Type: cell-based
- MEASUREMENT_SETUP: read-out: Ratio CC50/IC50
Give bare numbers.

{"columns": ["SMILES_INPUT", "selectivity ratio"],
 "data": [
  ["CC(=O)[C@]1(O)CC[C@@]2(O)[C@]1(C)[C@H](OC(=O)/C=C(\\C)C(C)C)C[C@@H]1[C@@]3(C)CC[C@H](OC(=O)c4ccnn4C)CC3=CC[C@]12O", 3.6]
]}

Query: selectivity ratio; subject: CC(=O)[C@]1(O)CC[C@@]2(O)[C@]1(C)[C@H](OC(=O)/C=C(\C)C(C)C)C[C@@H]1[C@@]3(C)CCC(=O)CC3=CC(=O)[C@]12O
1.4
